Values from patent EP0823908B1

Biological target: Human EGF receptor tyrosine kinase (Homo sapiens, UniProt P00533)
Construct: Human EGF receptor tyrosine kinase was isolated from A431 epidermoid carcinoma cells; endogenous in cells
Sequence (P00533 25-1210): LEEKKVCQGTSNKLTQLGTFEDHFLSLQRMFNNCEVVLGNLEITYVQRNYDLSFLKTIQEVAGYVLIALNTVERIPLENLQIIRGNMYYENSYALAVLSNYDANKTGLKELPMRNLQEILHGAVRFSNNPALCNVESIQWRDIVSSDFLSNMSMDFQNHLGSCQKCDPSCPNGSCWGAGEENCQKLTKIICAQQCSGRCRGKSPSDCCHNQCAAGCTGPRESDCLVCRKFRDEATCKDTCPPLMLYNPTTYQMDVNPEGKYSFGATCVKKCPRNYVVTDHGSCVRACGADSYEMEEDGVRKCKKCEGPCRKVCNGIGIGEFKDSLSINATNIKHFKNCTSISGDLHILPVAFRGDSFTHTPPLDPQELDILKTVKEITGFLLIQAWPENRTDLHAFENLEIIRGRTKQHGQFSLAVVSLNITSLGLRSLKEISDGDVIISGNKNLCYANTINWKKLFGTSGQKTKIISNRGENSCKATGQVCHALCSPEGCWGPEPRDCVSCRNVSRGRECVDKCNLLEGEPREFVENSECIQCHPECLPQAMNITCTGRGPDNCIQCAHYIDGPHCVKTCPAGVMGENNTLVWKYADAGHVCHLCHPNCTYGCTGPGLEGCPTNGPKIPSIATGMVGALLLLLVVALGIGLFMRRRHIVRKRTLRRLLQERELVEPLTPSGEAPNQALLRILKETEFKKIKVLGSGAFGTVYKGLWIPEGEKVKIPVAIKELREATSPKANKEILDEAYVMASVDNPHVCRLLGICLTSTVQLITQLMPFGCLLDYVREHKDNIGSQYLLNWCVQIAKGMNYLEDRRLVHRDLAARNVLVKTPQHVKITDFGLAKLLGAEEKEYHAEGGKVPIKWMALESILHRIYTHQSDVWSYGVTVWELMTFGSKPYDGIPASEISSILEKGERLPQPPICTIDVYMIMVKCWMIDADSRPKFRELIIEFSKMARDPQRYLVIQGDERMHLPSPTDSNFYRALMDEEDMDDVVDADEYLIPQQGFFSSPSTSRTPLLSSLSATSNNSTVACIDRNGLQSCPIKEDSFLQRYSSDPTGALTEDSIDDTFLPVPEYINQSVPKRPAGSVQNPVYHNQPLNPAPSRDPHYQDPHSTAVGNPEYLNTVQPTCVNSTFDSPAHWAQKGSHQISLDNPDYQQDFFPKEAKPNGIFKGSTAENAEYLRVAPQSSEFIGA
Test: EGF receptor tyrosine kinase enzyme assay (substrate peptide phosphorylation)
Settings: read-out: EGF-FL IC50
Description: Human EGF receptor tyrosine kinase was isolated from A431 epidermoid carcinoma cells by the following methods. […] The reaction was terminated by the addition of 2 mL of 75 mM phosphoric acid and passed through a 2.5-cm phosphocellulose filter disc to bind the peptide. The filter was washed 5 times with 75 mM phosphoric acid and placed in a vial along with 5 mL of scintillation fluid (Ready gel Heckman).
observed.property: IC50 (µM)

q: Returns the measured IC50 for the input compound. Input: Cn1c(=O)c(-c2c(Cl)cccc2Cl)cc2cnc(Nc3cccc(C(=O)O)c3)nc21 [Example 90]
a: 0.15

I: CCn1c(=O)c(-c2c(Cl)cccc2Cl)cc2cnc(Nc3ccc(O)cc3)nc21 [Example 75]
II: CCn1c(=O)c(-c2c(Cl)cccc2Cl)cc2cnc(Nc3cc(OC)c(OC)c(OC)c3)nc21 [Example 78]
q: Input pair: I , II . Output: entry with lower IC50. // output: label of the selected item
a: I

----------
Target: human FGF-1 (flg) receptor tyrosine kinase (Homo sapiens, UniProt P11362)
Construct: amplify a fragment of DNA that codes for the intracellular tyrosine kinase domain; made in house; host or cells: SF9 insect cells (baculovirus)
Sequence (P11362 478-767 limits assumed): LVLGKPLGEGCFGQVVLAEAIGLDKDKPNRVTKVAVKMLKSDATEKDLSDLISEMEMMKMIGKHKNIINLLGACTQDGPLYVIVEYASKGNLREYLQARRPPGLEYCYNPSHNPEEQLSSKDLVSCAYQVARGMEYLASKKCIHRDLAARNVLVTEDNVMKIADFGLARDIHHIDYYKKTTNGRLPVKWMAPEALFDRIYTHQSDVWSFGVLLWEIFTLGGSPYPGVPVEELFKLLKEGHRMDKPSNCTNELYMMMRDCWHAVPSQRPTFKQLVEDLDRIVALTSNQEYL
Assay: FGF receptor tyrosine kinase assay (32P incorporation into glutamate-tyrosine co-polymer)
Assay type: biochemical
Details: read-out: FGFr-TK % Inhibition at 50 µM
observed.property: inhibition at 50 µM (%)

q: For Cn1c(=N)c(-c2c(Cl)cccc2Cl)cc2cnc(O)nc21 , what is its reported inhibition at 50 µM?
a: 34

q: Using the record for Cn1c(=N)c(-c2ccccc2)cc2cnc(N)nc21 , report its inhibition at 50 µM.
a: 34

q: Form field: reported inhibition at 50 µM of Cn1c(=O)c(-c2c(Cl)cccc2Cl)cc2cnc([S+](C)[O-])nc21 (stereo not drawn)
a: 45

q: Look up inhibition at 50 µM for this compound: CCn1c(=O)c(-c2ccc(-c3ccccc3)cc2)cc2cnc(Nc3ccccc3)nc21
a: 15

q: Query (compound): CSc1ncc2cc(-c3c(Cl)cccc3Cl)c(=N)n(C)c2n1 ; field requested: inhibition at 50 µM
a: 20

I: CCn1c(=O)c(-c2ccsc2)cc2cnc(Nc3ccccc3)nc21
II: Cn1c(=O)c(-c2c(Cl)cccc2Cl)cc2cnc(O)nc21
q: Of the two listed items, which has the higher inhibition at 50 µM? First: I Second: II Bench note: the answer is the label of the chosen record.
a: I
(I: 28%, II: 16%)

----------
Molecular target: mouse PDGF-β receptor tyrosine kinase (Mus musculus, UniProt P05622)
Construct: amplify a fragment of DNA that codes for the intracellular tyrosine kinase domain
Sequence (P05622 599-961 limits assumed): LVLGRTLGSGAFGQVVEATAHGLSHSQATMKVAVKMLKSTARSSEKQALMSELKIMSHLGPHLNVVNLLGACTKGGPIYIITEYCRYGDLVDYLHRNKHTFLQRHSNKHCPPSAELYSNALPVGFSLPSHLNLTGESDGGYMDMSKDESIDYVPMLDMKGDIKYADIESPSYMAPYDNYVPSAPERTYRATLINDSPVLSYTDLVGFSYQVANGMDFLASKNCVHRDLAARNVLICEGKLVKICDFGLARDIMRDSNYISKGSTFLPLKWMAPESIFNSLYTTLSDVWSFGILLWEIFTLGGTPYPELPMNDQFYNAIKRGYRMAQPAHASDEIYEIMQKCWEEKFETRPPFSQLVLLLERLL
Experiment: PDGF receptor tyrosine kinase assay (32P incorporation into glutamate-tyrosine co-polymer)
Details: read-out: PDGFr-TK IC50
observed.property: IC50 (µM)

q: Could you share what IC50 was measured for Cn1c(=O)c(-c2c(Cl)cccc2Cl)cc2cnc(NCc3ccccc3)nc21 , tested on mouse PDGF-β receptor tyrosine kinase (Mus musculus, UniProt P05622)?
a: 17.6

q: Enter reported IC50 observed with mouse PDGF-β receptor tyrosine kinase (Mus musculus, UniProt P05622) for COc1ccc(CCNc2ncc3cc(-c4c(Cl)cccc4Cl)c(=O)n(C)c3n2)cc1OC
a: 17.9

q: Hi! What's the reported IC50 for Nc1ncc2cc(-c3c(Cl)cccc3Cl)c(=O)n(Cc3ccncc3)c2n1 on mouse PDGF-β receptor tyrosine kinase (Mus musculus, UniProt P05622)?
a: 1.76

q: Notebook entry, mouse PDGF-β receptor tyrosine kinase (Mus musculus, UniProt P05622) assay: IC50 of Cn1c(=O)c(-c2c(Cl)cccc2Cl)cc2cnc(Nc3ccccc3)nc21 = ?
a: 0.231

----------
Molecular target: Human EGF receptor tyrosine kinase (Homo sapiens, UniProt P00533)
Construct: Human EGF receptor tyrosine kinase was isolated from A431 epidermoid carcinoma cells; endogenous in cells; host or cells: A431 epidermoid carcinoma cells
Experiment: EGF receptor tyrosine kinase enzyme assay (substrate peptide phosphorylation)
Assay type: biochemical
Conditions: read-out: EGF-FL % Inhibition at 50 µM
observed.property: inhibition at 50 µM (%)

# annotated cases, reported inhibition at 50 µM shown
q: Which inhibition at 50 µM value belongs to Cn1c(=O)c(-c2c(Cl)cccc2Cl)cc2cnc(NCc3cccnc3)nc21 ?
a: 59

q: Field request: inhibition at 50 µM | item: Cn1c(=O)c(-c2c(Cl)cccc2Cl)cc2cnc(NCCO)nc21
a: 67

q: Dear colleague, I am looking for the recorded inhibition at 50 µM of the following molecule: CCCCNc1ncc2cc(-c3c(Cl)cccc3Cl)c(=O)n(C)c2n1
a: 85

q: What value of measured inhibition at 50 µM is listed for CCn1c(=O)c(-c2c(Cl)cccc2Cl)cc2cnc(N)nc21 ?
a: 77

q: Data request, read-out inhibition at 50 µM, for COc1ccccc1N1CCN(CCCNc2ncc3cc(-c4c(Cl)cccc4Cl)c(=O)n(C)c3n2)CC1
a: 46

q: Item CC(C)Cn1c(=O)c(-c2c(Cl)cccc2Cl)cc2cnc(N)nc21 has what recorded inhibition at 50 µM?
a: 95

I: COc1ccc(CCNc2ncc3cc(-c4c(Cl)cccc4Cl)c(=O)n(C)c3n2)cc1OC
II: Cn1c(=O)c(-c2c(Cl)cccc2Cl)cc2cnc(S(C)(=O)=O)nc21
III: CCCn1c(=O)c(-c2c(Cl)cccc2Cl)cc2cnc(N)nc21
IV: CSc1ncc2cc(-c3c(Cl)cccc3Cl)c(=O)n(C)c2n1
q: Returns the items ordered by inhibition at 50 µM, from maximum to minimum. In plain terms: list the labels in the order you were asked to.
a: III, I, IV, II

----------
Molecular target: human FGF-1 (flg) receptor tyrosine kinase (Homo sapiens)
Construct: amplify a fragment of DNA that codes for the intracellular tyrosine kinase domain; made in house; host or cells: SF9 insect cells (baculovirus)
Assay: FGF receptor tyrosine kinase assay (32P incorporation into glutamate-tyrosine co-polymer)
Assay type: biochemical
Details: read-out: FGFr-TK IC50
pIC50: −log10 of the molar value.
observed.property: pIC50

q: Look up pIC50: CCCCn1c(=O)c(-c2c(Cl)cccc2Cl)cc2cnc(N)nc21 [Example 32]
a: 6.13

a: CCn1c(=N)c(-c2cc(C)cc(C)c2)cc2cnc(Nc3ccccc3)nc21 [Example 117]
b: Cn1c(=O)c(-c2c(Cl)cccc2Cl)cc2cnc(N3C(=O)CCC3=O)nc21 [Example 17]
q: Please indicate which entry, a or b , has the lower recorded pIC50 value. When you have decided, please share the label of that item.
a: b
(b: 4.25, a: 6.10)

----------
Target: mouse PDGF-β receptor tyrosine kinase (Mus musculus, UniProt P05622)
Construct: amplify a fragment of DNA that codes for the intracellular tyrosine kinase domain; made in house; host or cells: SF9 insect cells (baculovirus)
Experiment: PDGF receptor tyrosine kinase assay (32P incorporation into glutamate-tyrosine co-polymer)
Format: biochemical
Conditions: read-out: PDGFr-TK % Inhibition at 50 µM
observed.property: inhibition at 50 µM (%)

P: CSc1ncc2cc(-c3c(Cl)cccc3Cl)c(=NC(C)=O)n(C)c2n1 [Example 28]
Q: Cn1c(=O)c(-c2c(Cl)cccc2Cl)cc2cnc([S+](C)[O-])nc21 (stereo not drawn) [Example 53]
q: Decide: P or Q , by lowest recorded inhibition at 50 µM. Pick one and reply with its label.
a: P
(P: 0%, Q: 20%)

----------
Target: C-src kinase (Homo sapiens)
Construct: made in house; host or cells: baculovirus infected insect cells
Sequence (P12931 whole entry): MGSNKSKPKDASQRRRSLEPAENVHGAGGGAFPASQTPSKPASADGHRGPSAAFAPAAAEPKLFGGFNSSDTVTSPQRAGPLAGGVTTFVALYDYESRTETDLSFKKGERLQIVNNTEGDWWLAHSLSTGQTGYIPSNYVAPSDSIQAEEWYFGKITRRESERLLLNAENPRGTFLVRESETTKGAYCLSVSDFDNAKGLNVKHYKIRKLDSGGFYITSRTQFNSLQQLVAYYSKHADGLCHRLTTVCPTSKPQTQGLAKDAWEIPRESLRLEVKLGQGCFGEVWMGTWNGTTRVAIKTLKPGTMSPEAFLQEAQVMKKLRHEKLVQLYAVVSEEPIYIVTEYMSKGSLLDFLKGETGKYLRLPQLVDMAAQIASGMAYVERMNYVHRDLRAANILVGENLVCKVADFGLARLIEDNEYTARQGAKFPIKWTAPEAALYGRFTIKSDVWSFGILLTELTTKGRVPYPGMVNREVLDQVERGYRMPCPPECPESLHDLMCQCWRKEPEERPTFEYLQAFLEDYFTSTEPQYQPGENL
Assay: C-src kinase assay (poly GluTyr substrate)
Assay type: biochemical
Conditions: read-out: C-src TK IC50
observed.property: IC50 (µM)

q: Checklist item: IC50 tested on C-src kinase (Homo sapiens), entry Nc1ncc2cc(-c3c(Cl)cccc3Cl)c(=O)n(CCCc3ccccc3)c2n1 [Example 114] , value?
a: 1.09

P: CC(C)(C)OC(=O)Cn1c(=O)c(-c2c(Cl)cccc2Cl)cc2cnc(N)nc21 [Example 36]
Q: COc1ccccc1Nc1ncc2cc(-c3c(Cl)cccc3Cl)c(=O)n(C)c2n1 [Example 71]
R: COc1ccc(Cn2c(=O)c(-c3c(Cl)cccc3Cl)cc3cnc(N)nc32)cc1 [Example 112]
q: Task for the reader: rank each entry by its IC50, from the minimum upward. Use the labels to give the ranking in the order requested.
a: P, R, Q

----------
Target: C-src kinase (Homo sapiens)
Construct: made in house; host or cells: baculovirus infected insect cells
Assay: C-src kinase assay (poly GluTyr substrate)
Type: biochemical
Conditions: read-out: C-src TK IC50
pIC50: −log10 of the molar value.
observed.property: pIC50

q: Please look up its pIC50: COC(=O)Cn1c(=O)c(-c2c(Cl)cccc2Cl)cc2cnc(N)nc21 [Example 35]
a: 6.47

q: What value of measured pIC50 is listed for COc1cccc(Nc2ncc3cc(-c4c(Cl)cccc4Cl)c(=O)n(C)c3n2)c1 [Example 72] ?
a: 7.28

q: Endpoint output: pIC50 of CCOC(=O)c1ccc(Nc2ncc3cc(-c4c(Cl)cccc4Cl)c(=O)n(C)c3n2)cc1 [Example 88] . Value?
a: 7.02

q: pIC50 for COc1ccc(Nc2ncc3cc(-c4c(Cl)cccc4Cl)c(=O)n(C)c3n2)cn1 [Example 85] ?
a: 7.89

q: Need pIC50 of CCn1c(=O)c(-c2c(Cl)cccc2Cl)cc2cnc(Nc3ccc(OC)cc3)nc21 [Example 74] , thanks.
a: 7.10

q: Item CCCCNc1ncc2cc(-c3c(Cl)cccc3Cl)c(=O)n(C)c2n1 [Example 45] has what recorded pIC50?
a: 5.62

q: Given the molecule CCn1c(=O)c(-c2c(Cl)cccc2Cl)cc2cnc(Nc3ccncc3)nc21 [Example 93] , what is its reported pIC50?
a: 8.05

q: For CCn1c(=O)c(-c2c(Cl)cccc2Cl)cc2cnc(N)nc21 [Example 30] , what is its reported pIC50?
a: 6.81

a: Cn1c(=O)c(-c2c(Cl)cccc2Cl)cc2cnc(NCCc3ccccn3)nc21 [Example 51]
b: Cn1c(=O)c(-c2c(Cl)cccc2Cl)cc2cnc(Nc3ccc(CC(=O)O)cc3)nc21 [Example 86]
c: Nc1ncc2cc(-c3c(Cl)cccc3Cl)c(=O)n(Cc3cccc(Br)c3)c2n1 [Example 109]
d: CCn1c(=O)c(-c2c(Cl)cccc2Cl)cc2cnc(Nc3ccc(OC)c(OC)c3)nc21 [Example 77]
q: Sort the molecules on pIC50; start with the lowest figure. Put the labels in the requested order and list them out.
a: a, c, d, b
